target: LPS/F22-4; assay: ELISA inhibition of LPS/F22-4 binding; set-up: species or system murine

sequence_content: YLEDWIKYNNQK [Peptide B1]
IC50: ~3 µM

----------
target: LPS/F22-4; assay: ELISA inhibition of LPS/F22-4 binding; design: species or system murine
pIC50: −log10 of the molar value.
metric_name: pIC50

compound: CO[C@@H]1O[C@@H](C)[C@H](O[C@H]2O[C@H](CO)[C@@H](O)[C@H](O)[C@H]2O)[C@@H](O[C@@H]2O[C@@H](C)[C@H](O)[C@@H](O)[C@H]2O[C@@H]2O[C@@H](C)[C@H](O)[C@@H](O)[C@H]2O[C@@H]2O[C@H](CO)[C@@H](O)[C@H](O)[C@H]2NC(C)=O)[C@H]1O [DAB(E)C]
relation_sign: <
experimental_result: 3.00

compound: COC1OC(C)C(OC2OC(CO)C(O)C(O)C2O)C(OC2OC(C)C(O)C(O)C2OC2OC(C)C(O)C(O)C2OC2OC(CO)C(O)C(OC3OC(C)C(OC4OC(CO)C(O)C(O)C4O)C(OC4OC(C)C(O)C(O)C4O)C3O)C2NC(C)=O)C1O (centres unmarked) [B(E)CDAB(E)C]
relation_sign: =
experimental_result: 6.66

compound: CO[C@@H]1O[C@@H](C)[C@H](O)[C@@H](O)[C@H]1O[C@@H]1O[C@@H](C)[C@H](O)[C@@H](O)[C@H]1O[C@@H]1O[C@H](CO)[C@@H](O)[C@H](O[C@@H]2O[C@@H](C)[C@H](O[C@H]3O[C@H](CO)[C@@H](O)[C@H](O)[C@H]3O)[C@@H](O)[C@H]2O)[C@H]1NC(C)=O
relation_sign: =
experimental_result: 3.45

compound: CO[C@@H]1O[C@@H](C)[C@H](O)[C@@H](O)[C@H]1O[C@@H]1O[C@H](CO)[C@@H](O)[C@H](O[C@@H]2O[C@@H](C)[C@H](O[C@H]3O[C@H](CO)[C@@H](O)[C@H](O)[C@H]3O)[C@@H](O[C@@H]3O[C@@H](C)[C@H](O)[C@@H](O)[C@H]3O)[C@H]2O)[C@H]1NC(C)=O [B(E)CDA]
relation_sign: =
experimental_result: 5.60

compound: COC1OC(C)C(OC2OC(CO)C(O)C(O)C2O)C(OC2OC(C)C(O)C(O)C2OC2OC(C)C(O)C(O)C2OC2OC(CO)C(O)C(OC3OC(C)C(OC4OC(CO)C(O)C(O)C4O)C(OC4OC(C)C(O)C(O)C4OC4OC(C)C(O)C(O)C4OC4OC(CO)C(O)C(O)C4NC(C)=O)C3O)C2NC(C)=O)C1O (centres unmarked) [DAB(E)CDAB(E)C]
relation_sign: =
experimental_result: 5.30

----------
Item-by-item account of Kd
target: F22-4 antibody; test: ITC microcalorimetry; type: binding, murine; conditions: Table 6 recapitulation; read-out: microcal KD

compound: COC1OC(C)C(OC2OC(CO)C(O)C(O)C2O)C(OC2OC(C)C(O)C(O)C2OC2OC(C)C(O)C(O)C2OC2OC(CO)C(O)C(OC3OC(C)C(OC4OC(CO)C(O)C(O)C4O)C(OC4OC(C)C(O)C(O)C4O)C3O)C2NC(C)=O)C1O (stereo not shown) [B(E)CDAB(E)C]
Kd (µM): 0.47
//
compound: COC1OC(C)C(OC2OC(CO)C(O)C(O)C2O)C(OC2OC(C)C(O)C(O)C2OC2OC(C)C(O)C(O)C2OC2OC(CO)C(O)C(OC3OC(C)C(OC4OC(CO)C(O)C(O)C4O)C(OC4OC(C)C(O)C(O)C4OC4OC(C)C(O)C(O)C4OC4OC(CO)C(O)C(O)C4NC(C)=O)C3O)C2NC(C)=O)C1O (stereo not shown) [DAB(E)CDAB(E)C]
Kd (µM): 5.4
//
compound: CO[C@@H]1O[C@@H](C)[C@H](O)[C@@H](O)[C@H]1O[C@@H]1O[C@H](CO)[C@@H](O)[C@H](O[C@@H]2O[C@@H](C)[C@H](O[C@H]3O[C@H](CO)[C@@H](O)[C@H](O)[C@H]3O)[C@@H](O[C@@H]3O[C@@H](C)[C@H](O)[C@@H](O)[C@H]3O)[C@H]2O)[C@H]1NC(C)=O [B(E)CDA]
Kd (µM): 3.35
//
compound: CO[C@@H]1O[C@@H](C)[C@H](O)[C@@H](O)[C@H]1O[C@@H]1O[C@@H](C)[C@H](O)[C@@H](O)[C@H]1O[C@@H]1O[C@H](CO)[C@@H](O)[C@H](O[C@@H]2O[C@@H](C)[C@H](O[C@H]3O[C@H](CO)[C@@H](O)[C@H](O)[C@H]3O)[C@@H](O)[C@H]2O)[C@H]1NC(C)=O [ECDAB]
Kd (µM): 230

Reference for the values: patent EP2123668A1
